Assignment: determine reported EC50 for the given compounds.
- Assay: Inhibition of biotinylated PEX5 (unknown origin)/N-terminal His-tagged Trypanosoma brucei PEX14 (19 to 84 residues) expressed in Escherichia coli BL21 by AlphaScreen assay

Input: What EC50 value was documented for this compound, CCN1C(=O)c2ccccc2Oc2cc(NC(=O)Cc3ccsc3)ccc21 ?
Output: 825 µM

Input: What EC50 value was documented for this compound, COC(=O)N1C(=O)c2ccccc2Oc2cc(NC(=O)Cc3ccc(F)cc3)ccc21 ?
Output: 480 µM

Input: What EC50 value was documented for this compound, O=C(Cc1ccc(F)cc1)Nc1ccc2c(c1)Oc1ccccc1C(=O)N2 ?
Output: 11000 µM

Input: What EC50 value was documented for this compound, CCN1C(=O)c2ccccc2Oc2cc(NC(=O)Cc3c[nH]c4ccccc34)ccc21 ?
Output: 109 µM

Input: What EC50 value was documented for this compound, CC(C)N1C(=O)c2cccnc2[S+]([O-])c2cc(NC(=O)Cc3ccc(F)cc3)ccc21 (stereo not given) ?
Output: 1730 µM

Input: What EC50 value was documented for this compound, CC(C)N1C(=O)c2cccnc2Sc2cc(NC(=O)Cc3ccc(F)cc3)ccc21 ?
Output: 1050 µM

Input: What EC50 value was documented for this compound, CCN1C(=O)c2ccccc2Oc2cc(NC(=O)Cc3cccc4ccccc34)ccc21 ?
Output: 69 µM

Input: What EC50 value was documented for this compound, CS(=O)(=O)N1C(=O)c2ccccc2Oc2cc(NC(=O)Cc3ccc(F)cc3)ccc21 ?
Output: 422 µM

Input: What EC50 value was documented for this compound, CCN1C(=O)c2ccccc2Oc2cc(NC(=O)[C@@H](NC(=O)OC(C)(C)C)c3ccccc3)ccc21 ?
Output: 318 µM

Input: What EC50 value was documented for this compound, CCN1C(=O)c2ccccc2Sc2cc(NC(=O)Cc3ccc(F)cc3)ccc21 ?
Output: 230 µM

* * *

- Assay: Inhibition of biotinylated PEX5 (unknown origin)/N-terminal His-tagged Trypanosoma cruzi PEX14 (19 to 84 residues) expressed in Escherichia coli BL21 by AlphaScreen assay
Experimental readout: log10 of EC50 (log10 of the value in µM)
Quick note: numbers are log10 of EC50, with µM as the unit.

Input: What log10 of EC50 value was documented for this compound, CCN1C(=O)c2ccccc2Oc2cc(NC(=O)Cc3c[nH]c4ccccc34)ccc21 ?
Output: 2.83

Input: What log10 of EC50 value was documented for this compound, CCN1C(=O)c2ccccc2Oc2cc(NC(=O)Cc3cnccn3)ccc21 ?
Output: 3.29

Input: What log10 of EC50 value was documented for this compound, CS(=O)(=O)N1C(=O)c2ccccc2Oc2cc(NC(=O)Cc3ccc(F)cc3)ccc21 ?
Output: 4.01

Input: What log10 of EC50 value was documented for this compound, CC(C)N1C(=O)c2cccnc2Sc2cc(NC(=O)Cc3ccc(F)cc3)ccc21 ?
Output: 3.36

Input: What log10 of EC50 value was documented for this compound, COC(=O)CN1C(=O)c2ccccc2Oc2cc(NC(=O)Cc3ccc(F)cc3)ccc21 ?
Output: 3.66

Input: What log10 of EC50 value was documented for this compound, CCN1C(=O)c2ccccc2Oc2cc(NC(=O)Cn3nnc4ccccc43)ccc21 ?
Output: 4.11

Input: What log10 of EC50 value was documented for this compound, CCN1C(=O)c2ccccc2Sc2cc(NC(=O)Cc3ccc(F)cc3)ccc21 ?
Output: 2.80

Input: What log10 of EC50 value was documented for this compound, CCN1C(=O)c2ccccc2Oc2cc(NC(=O)Cc3ccccc3)ccc21 ?
Output: 2.90

Input: What log10 of EC50 value was documented for this compound, CCN1C(=O)c2ccccc2Oc2cc(NS(=O)(=O)c3ccccc3)ccc21 ?
Output: 2.89

Input: What log10 of EC50 value was documented for this compound, CCN1C(=O)c2ccccc2Oc2cc(NC(=O)Cc3cccc(Cl)c3)ccc21 ?
Output: 3.47
